Molecular target: A2A adenosine receptor (Rattus norvegicus, UniProt P30543)
Sequence (P30543 whole entry, the tested form may be a part): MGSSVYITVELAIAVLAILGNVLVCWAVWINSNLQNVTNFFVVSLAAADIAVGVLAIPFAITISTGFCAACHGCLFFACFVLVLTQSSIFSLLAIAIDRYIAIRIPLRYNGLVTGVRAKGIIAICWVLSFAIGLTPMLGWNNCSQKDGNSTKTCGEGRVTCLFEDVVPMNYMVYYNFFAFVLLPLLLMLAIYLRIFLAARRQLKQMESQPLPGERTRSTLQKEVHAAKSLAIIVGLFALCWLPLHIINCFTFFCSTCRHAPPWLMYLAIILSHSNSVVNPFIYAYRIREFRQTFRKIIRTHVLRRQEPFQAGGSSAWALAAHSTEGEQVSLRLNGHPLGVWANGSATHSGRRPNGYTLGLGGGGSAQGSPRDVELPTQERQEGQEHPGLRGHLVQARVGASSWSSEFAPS
Assay: Reversal time of coronary vasodilation after bolus injection in rat isolated perfused hearts
Details: rat isolated perfused hearts, bolus into perfusion line
t 0.5, time to 50% reversal of the increase in coronary conductance: recorded values
PROPERTY: t 0.5, time to 50% reversal of the increase in coronary conductance (min)

COMPOUND	OBS_VALUE
Nc1nc(-c2cnn(CCCc3ccccc3)c2)nc2c1ncn2C1O[C@H](CO)[C@@H](O)[C@H]1O (stereo partly shown)	8.3
CCCCCCC#Cc1nc(N)c2ncn([C@@H]3O[C@H](CO)[C@@H](O)[C@H]3O)c2n1 [YT-146, reference compound]	17.7
CCCCC#Cc1nc(N)c2ncn([C@@H]3O[C@H](C(=O)NCC)[C@@H](O)[C@H]3O)c2n1 [HENECA, reference compound]	28.6
CCCCCn1cc(-c2nc(N)c3ncn([C@@H]4O[C@H](CO)[C@@H](O)[C@H]4O)c3n2)cn1	3.4
